Origin of values: patent US20260327250A1

method-summary: Intestinal mucosal permeation using Caco-2 cell monolayers
applied-conditions: human, Caco-2, pH 7.4, Percentage recovery A→B, apical to basolateral
Counter-ions that a name gives are not always drawn.
measure-name: recovery at 2 h, 5 µM (%)
Respond with the bare value in %.

Need recovery at 2 h, 5 µM of CC(C)N(CCc1c[nH]c2cccc(OC(=O)CCCC(=O)Oc3cccc4[nH]cc(CCN(C(C)C)C(C)C)c34)c12)C(C)C [Compound I-37, dihydrochloride] , thanks.
74.9

---

This section presents compounds with their documented remaining at 1 h values.
method-summary: Mouse plasma stability
applied-conditions: mouse, plasma
Structures can show the parent of a compound that is named as a salt.

1) CC(C)N(CCc1c[nH]c2cccc(OC(=O)CCCC(=O)Oc3cccc4[nH]cc(CCN(C(C)C)C(C)C)c34)c12)C(C)C [Compound I-37, dihydrochloride] | 0%

Need remaining at 1 h of CC(C)[N+](C)(CCOC(=O)C1c2ccccc2Oc2ccccc21)C(C)C [Propantheline, reference compound] , thanks.
32.5%

---

This section presents compounds with their documented remaining at 1 h, 2 µM values.
method-summary: in vitro
applied-conditions: rat, microsomes
Where a name gives a salt, the structure may show the parent alone.
Respond with the bare value in %.

Known results for compounds:
1. CN(C)CCc1c[nH]c2cccc(O)c12 [Psilocin, 4-hydroxy-N,N-dimethyltryptamine, reference compound] | 62.7
2. CN(C)CCc1c[nH]c2cccc(OC(=O)CCCC(=O)Oc3cccc4[nH]cc(CCN(C)C)c34)c12 | 0

Need remaining at 1 h, 2 µM of CC(C)N(CCc1c[nH]c2cccc(OC(=O)CCCC(=O)Oc3cccc4[nH]cc(CCN(C(C)C)C(C)C)c34)c12)C(C)C [Compound I-37, dihydrochloride] , thanks.
0

---

method-summary: in vitro
applied-conditions: human, Caco-2, pH 7.4
measure-name: Papp B→A at 2 h, 5 µM (×10⁻⁶ cm/s)
Respond with the bare value in ×10⁻⁶ cm/s.

1. CN(C)CCc1c[nH]c2cccc(OC(=O)CCCC(=O)Oc3cccc4[nH]cc(CCN(C)C)c34)c12 | 2.47

Then this molecule:
Need Papp B→A at 2 h, 5 µM of CN(C)CCc1c[nH]c2cccc(O)c12 [Psilocin, 4-hydroxy-N,N-dimethyltryptamine, reference compound] , thanks.
18.7

---

This section presents compounds with their documented microsomal CLint at 2 µM values.
method-summary: in vitro
applied-conditions: human, microsomes
Where a name gives a salt, the structure may show the parent alone.

1) CN(C)CCc1c[nH]c2cccc(OC(=O)CCCC(=O)Oc3cccc4[nH]cc(CCN(C)C)c34)c12 | 281 µL/min/mg

Then this compound:
Need microsomal CLint at 2 µM of CC(C)N(CCc1c[nH]c2cccc(OC(=O)CCCC(=O)Oc3cccc4[nH]cc(CCN(C(C)C)C(C)C)c34)c12)C(C)C [Compound I-37, dihydrochloride] , thanks.
> 307 µL/min/mg

---

assayed-system: UniProtKB P28223
Sequence (P28223 whole entry): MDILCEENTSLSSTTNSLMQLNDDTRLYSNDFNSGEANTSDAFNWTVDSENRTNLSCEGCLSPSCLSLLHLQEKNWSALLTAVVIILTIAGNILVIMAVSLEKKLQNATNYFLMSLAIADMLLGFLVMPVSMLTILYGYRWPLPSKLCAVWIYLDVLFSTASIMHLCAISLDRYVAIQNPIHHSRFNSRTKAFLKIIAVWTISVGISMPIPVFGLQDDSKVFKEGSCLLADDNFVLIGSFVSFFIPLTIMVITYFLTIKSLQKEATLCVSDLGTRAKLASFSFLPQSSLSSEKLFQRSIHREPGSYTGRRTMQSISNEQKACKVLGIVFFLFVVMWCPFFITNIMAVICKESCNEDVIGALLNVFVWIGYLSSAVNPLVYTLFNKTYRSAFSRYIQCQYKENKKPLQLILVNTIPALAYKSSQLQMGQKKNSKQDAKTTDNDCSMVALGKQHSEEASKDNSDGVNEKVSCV
method-summary: Human 5-HT2A radioligand binding assay ([3H]-ketanserin)
Counter-ions that a name gives are not always drawn.
measure-name: IC50 (nM)
Respond with the bare value in nM.

Reported IC50 for UniProtKB P28223, given CC(C)N(CCc1c[nH]c2cccc(OC(=O)CCCC(=O)Oc3cccc4[nH]cc(CCN(C(C)C)C(C)C)c34)c12)C(C)C [Compound I-37, dihydrochloride] ?
547

---

method-summary: Rat plasma stability
applied-conditions: rat, plasma
Where a name gives a salt, the structure may show the parent alone.
This section presents molecules with their documented remaining at 2 h values.
Respond with the bare value in %.

1. CC[C@H](C)C(=O)O[C@H]1C[C@@H](C)C=C2C=C[C@H](C)[C@H](CC[C@@H]3C[C@@H](O)CC(=O)O3)[C@H]21 [Lovastatin, reference compound] | 0

Need remaining at 2 h of CC(C)N(CCc1c[nH]c2cccc(OC(=O)CCCC(=O)Oc3cccc4[nH]cc(CCN(C(C)C)C(C)C)c34)c12)C(C)C [Compound I-37, dihydrochloride] , thanks.
0

---

method-summary: in vitro
applied-conditions: human, microsomes
Counter-ions that a name gives are not always drawn.
measure-name: remaining at 1 h, 2 µM (%)
Respond with the bare value in %.

Need remaining at 1 h, 2 µM of CC(C)N(CCc1c[nH]c2cccc(OC(=O)CCCC(=O)Oc3cccc4[nH]cc(CCN(C(C)C)C(C)C)c34)c12)C(C)C [Compound I-37, dihydrochloride] , thanks.
0

---

This section presents compounds with their documented remaining at 1 h values.
method-summary: Human plasma stability
applied-conditions: human, plasma
Counter-ions that a name gives are not always drawn.
Respond with the bare value in %.

1. CC(C)[N+](C)(CCOC(=O)C1c2ccccc2Oc2ccccc21)C(C)C [Propantheline, reference compound] | 1.28

Then this compound:
Need remaining at 1 h of CC(C)N(CCc1c[nH]c2cccc(OC(=O)CCCC(=O)Oc3cccc4[nH]cc(CCN(C(C)C)C(C)C)c34)c12)C(C)C [Compound I-37, dihydrochloride] , thanks.
0

---

method-summary: Dog plasma stability
applied-conditions: dog, plasma
Where a name gives a salt, the structure may show the parent alone.
measure-name: remaining at 1 h (%)
Respond with the bare value in %.

1. CC[C@H](C)C(=O)O[C@H]1C[C@@H](C)C=C2C=C[C@H](C)[C@H](CC[C@@H]3C[C@@H](O)CC(=O)O3)[C@H]21 [Lovastatin, reference compound] | 64.8

Need remaining at 1 h of CC(C)N(CCc1c[nH]c2cccc(OC(=O)CCCC(=O)Oc3cccc4[nH]cc(CCN(C(C)C)C(C)C)c34)c12)C(C)C [Compound I-37, dihydrochloride] , thanks.
70.5

---

method-summary: in vitro
applied-conditions: human, Caco-2, pH 7.4
measure-name: efflux ratio at 2 h, 5 µM
Form field (numeric): enter value without unit.

Need efflux ratio at 2 h, 5 µM of CN(C)CCc1c[nH]c2cccc(OC(=O)CCCC(=O)Oc3cccc4[nH]cc(CCN(C)C)c34)c12 , thanks.
9.16

---

This section presents molecules with their documented pIC50 values.
assayed-system: human 5-HT1A receptor (Homo sapiens, UniProt P08908)
Sequence (P08908 whole entry): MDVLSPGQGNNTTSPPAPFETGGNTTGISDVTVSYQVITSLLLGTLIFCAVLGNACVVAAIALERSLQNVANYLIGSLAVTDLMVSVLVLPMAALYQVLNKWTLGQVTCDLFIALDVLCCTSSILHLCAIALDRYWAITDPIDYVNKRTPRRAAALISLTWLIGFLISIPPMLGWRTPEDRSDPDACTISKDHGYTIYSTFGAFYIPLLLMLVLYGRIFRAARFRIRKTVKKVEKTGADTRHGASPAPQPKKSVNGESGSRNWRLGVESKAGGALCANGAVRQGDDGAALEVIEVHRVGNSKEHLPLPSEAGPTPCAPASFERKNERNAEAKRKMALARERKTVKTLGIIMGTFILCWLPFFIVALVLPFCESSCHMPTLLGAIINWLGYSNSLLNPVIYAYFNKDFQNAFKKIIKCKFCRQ
method-summary: Human 5-HT1A radioligand binding assay ([3H]-8-Hydroxy-DPAT)
applied-conditions: [3H]-8-Hydroxy-DPAT, 27° C., 90 min; read-out: h5-HT1A, IC50
Please note pIC50 is a logarithmic value: minus log10 of concentration in mol/L. Answer with that number alone.

1) CC(C)N(CCc1c[nH]c2cccc(O)c12)C(C)C [Compound 7] | 5.33
2) CN(C)CCc1c[nH]c2cccc(OP(=O)(O)O)c12 [Psilocybin] | 5.32

Then this molecule:
Reported pIC50 for human 5-HT1A receptor (Homo sapiens, UniProt P08908), given CN(C)CCc1c[nH]c2cccc(OC(=O)CCCC(=O)Oc3cccc4[nH]cc(CCN(C)C)c34)c12 [Compound I-24] ?
6.47

---

method-summary: Human plasma stability
applied-conditions: human, plasma
Counter-ions that a name gives are not always drawn.
measure-name: remaining at 0.5 h (%)
Respond with the bare value in %.

1) CC(C)[N+](C)(CCOC(=O)C1c2ccccc2Oc2ccccc21)C(C)C [Propantheline, reference compound] | 18.7

Need remaining at 0.5 h of CC(C)N(CCc1c[nH]c2cccc(OC(=O)CCCC(=O)Oc3cccc4[nH]cc(CCN(C(C)C)C(C)C)c34)c12)C(C)C [Compound I-37, dihydrochloride] , thanks.
0

---

assayed-system: human 5-hydroxytryptamine receptor 1A (5-HT1A) (Homo sapiens, UniProt P08908)
Construct: expressed in transfected cells; host or cells: HTR1A&Ga15-CHO
Sequence (P08908 whole entry): as above
method-summary: Human 5-HT1A functional FLIPR assay (agonist mode)
Type: cell-based
applied-conditions: footnote: Curve fitting with activation (%) @ 10 mM with RFU
Where a name gives a salt, the structure may show the parent alone.
measure-name: RFU@10 μM (RFU)
Respond with the bare value in RFU.

Known results for molecules:
1. CN(C)CCc1c[nH]c2cccc(OC(=O)CCCC(=O)Oc3cccc4[nH]cc(CCN(C)C)c34)c12 | 169
2. CN(C)CCc1c[nH]c2cccc(OP(=O)(O)O)c12 | 143
3. CN(C)CCc1c[nH]c2cccc(O)c12 [Psilocin, 4-hydroxy-N,N-dimethyltryptamine, reference compound] | 140
4. CC(C)N(CCc1c[nH]c2cccc(O)c12)C(C)C | 74

Then this molecule:
Need RFU@10 μM of CC(C)N(CCc1c[nH]c2cccc(OC(=O)CCCC(=O)Oc3cccc4[nH]cc(CCN(C(C)C)C(C)C)c34)c12)C(C)C [Compound I-37, dihydrochloride] , thanks.
62

---

method-summary: Dog plasma stability
applied-conditions: dog, plasma
Structures can show the parent of a compound that is named as a salt.
measure-name: remaining at 4 h (%)
Respond with the bare value in %.

1) CC(C)N(CCc1c[nH]c2cccc(OC(=O)CCCC(=O)Oc3cccc4[nH]cc(CCN(C(C)C)C(C)C)c34)c12)C(C)C [Compound I-37, dihydrochloride] | 24.2

Then this compound:
Need remaining at 4 h of CC[C@H](C)C(=O)O[C@H]1C[C@@H](C)C=C2C=C[C@H](C)[C@H](CC[C@@H]3C[C@@H](O)CC(=O)O3)[C@H]21 [Lovastatin, reference compound] , thanks.
11
